The reported numbers originate from ChEMBL document CHEMBL3352353.

- Protocol Summary: Metabolic stability in human serum assessed as compound remaining at 3 mM after 1 hr by RP-HPLC analysis
- Type: ADME, cell-free
- Condition Parameters: read-out: Stability
Quantity Name: remaining at 1 h, 3000 µM (%)
Answer in %, number only, no unit symbol.

[in] Given the molecule `N=C(N)NCCC[C@H](NC(=O)[C@@H]1CSSC[C@@H]2NC(=O)[C@@H](NC(=O)CN)C/C=C\C[C@H](NC(=O)[C@H](CCCNC(=N)N)NC(=O)[C@@H]3CCCN3C(=O)[C@H](CC(=O)O)NC(=O)[C@H](CO)NC2=O)C(=O)N[C@@H](CCCNC(=N)N)C(=O)N[C@@H](Cc2ccc(O)cc2)C(=O)N[C@@H](CCCNC(=N)N)C(=O)N1)C(=O)O` , what is its reported remaining at 1 h, 3000 µM?
[out] 30
